Test system: Fibroblast
Assay: Incucyte cell viability with human fibroblast; further: filed as whole numbers so only -1 and 0 and 1 occur
Type: toxicity, cell-based
Conditions: 18 h, 10 µM, compound concentration 10 uM, replicate number 2, timepoint 18 hours
Below is a list of entries, each paired with its recorded Growth Rate value.

| compound | Growth Rate |
| --- | --- |
| CNC[C@H](O)c1cccc(O)c1 | 1 |
| N[C@@H](Cc1cc(I)c(Oc2ccc(O)c(I)c2)c(I)c1)C(=O)O | 1 |
| CN1C2CCC1CC(OC(c1ccc(F)cc1)c1ccc(F)cc1)C2.Cl (stereo unspecified) | 0 |

Give the reported Growth Rate for this compound. COC1CCN(c2cccc(-c3cc(NC(C)=O)nc(-n4nc(C)cc4C)n3)n2)CC1 0

Give the reported Growth Rate for this compound. CCCS(=O)(=O)c1nc(NC2CC2)cc(-c2ccc3c(ccn3C3CC(C)(C)NC(C)(C)C3)c2)n1 1

---

Test system: U2OS
Assay: Multiplex assay against U2OS
Assay type: toxicity, cell-based
Details: human, 24 h, 10 µM, compound concentration 10 uM, replicate 2
experimental-endpoint: Total Cell Count
I'd appreciate a reply containing only the number, no unit.

| molecule | Total Cell Count |
| --- | --- |
| O=C(Nc1ccc(-c2ccnc(Nc3ccc(N4CCOCC4)cc3)n2)cc1)[C@@H]1CCCN1 | 72 |
| COc1cc2ncnc(Nc3ccc(F)c(Cl)c3)c2cc1NC(=O)/C=C/CN1CCCCC1 [DACOMITINIB ANHYDROUS] | 114 |
| CCOc1cc(C(=O)N2CCC(N3CCN(C)CC3)CC2)ccc1Nc1ncc2c(n1)N(C1CCCC1)c1ccccc1C(=O)N2C | 85 |

Turning now to a further record.
Enter Total Cell Count (test system U2OS) for CCCS(=O)(=O)Nc1ccc(F)c(C(=O)c2c[nH]c3ncc(Cl)cc23)c1F [PLX-4720] 93

---

System: HEK-293T
Experiment: Multiplex assay against HEK293T
Assay type: toxicity, cell-based
Conditions: human, 12 h, 1 µM, compound concentration 1 uM, replicate 2
Below is a list of entries, each paired with its recorded Population Mitochondria Different-Phenotype (%) value.
Express the result in % but write the number alone.

Give the reported Population Mitochondria Different-Phenotype (%) for this molecule. Cl.Oc1ccc2c3c1O[C@H]1c4[nH]c5c(c4C[C@@]4(O)[C@@H](C2)N(CC2CC2)CC[C@]314)C[C@@]1(O)[C@H]2Cc3ccc(O)c4c3[C@@]1(CCN2CC1CC1)[C@H]5O4 10

Give the reported Population Mitochondria Different-Phenotype (%) for this molecule. C=C1/C(=C\C=C2/CCC[C@]3(C)[C@@H]([C@H](C)/C=C/[C@H](C)C(C)C)CC[C@@H]23)C[C@@H](O)C[C@@H]1O [DOXERCALCIFEROL] 11

Give the reported Population Mitochondria Different-Phenotype (%) for this molecule. CCn1c(=O)c(-c2ccc(-c3cncs3)cc2Cl)cc2cnc(Nc3ccc(N4CCN(C)CC4)cc3)nc21 13

---

Tested on: U2OS
Assay: Incucyte cell viability with U2OS; further: filed as whole numbers so only -1 and 0 and 1 occur
Type: toxicity, cell-based
Settings: human, 0 h, 10 µM, compound concentration 10 uM, replicate number 1, timepoint 0 hours
Below is a list of entries, each paired with its recorded Growth Rate value.
I'd appreciate a reply containing only the number, no unit.

| molecule | Growth Rate |
| --- | --- |
| Cc1c(C(=O)O)cc(-c2ccc(C3CCNCC3)cc2)c2ccc(-c3ccc(C(F)(F)F)cc3)cc12.Cl | 0 |
| COc1cc2ncnc(Nc3ccc(F)c(Cl)c3)c2cc1NC(=O)/C=C/CN1CCCCC1 [DACOMITINIB ANHYDROUS] | 0 |
| O=C(NOCC1CC1)c1ccc(F)c(F)c1Nc1ccc(I)cc1Cl [CI-1040] | 0 |
| COc1cc(-c2cn(C)c(=O)c3cnccc23)c(OC)cc1CN(C)C | 0 |
| Cc1nc(NC(=O)N2CCC[C@H]2C(N)=O)sc1-c1ccnc(C(C)(C)C(F)(F)F)c1 [ALPELISIB] | 1 |
| Cc1nnn(-c2ccc(-c3ccc(C4(C(=O)O)CC4)cc3)cc2)c1NC(=O)O[C@H](C)c1ccccc1 | 0 |
| Cl.O=C(O)Cc1cccc(OCCCN(Cc2cccc(C(F)(F)F)c2Cl)CC(c2ccccc2)c2ccccc2)c1 | 0 |
| Cc1ccc(-c2cnc([C@@]3(O)CC[C@H](C(=O)O)C(C)(C)C3)s2)cc1Nc1cccc(C(F)(F)F)n1 [MRL-SYKi-NC] | 0 |
| O=C(Nc1cccnn1)N1CCC(=Cc2cccc(Oc3ccc(C(F)(F)F)cn3)c2)CC1 | 0 |
| N#Cc1c[nH]c2c(C(=O)N3CCN(CCc4ccc(F)cc4)CC3)cccc12 [PRUVANSERIN] | 1 |

Give the reported Growth Rate for this molecule. COc1ccc(S(=O)(=O)N(CCO)c2ccccc2CN(C)C/C=C/c2ccc(Cl)cc2)cc1.O=P(O)(O)O 0

Give the reported Growth Rate for this molecule. COc1cc2c(CCNC(C)=O)c[nH]c2cc1Cl 0

Give the reported Growth Rate for this molecule. C[C@]12CCC(=O)C=C1CC[C@@H]1[C@@H]2[C@@H](O)C[C@]2(C=O)[C@@H](C(=O)CO)CC[C@@H]12 [ALDOSTERONE] 0

Give the reported Growth Rate for this molecule. FC(F)(F)c1cccc(-c2noc(-c3cc(-c4ccccc4)c(C(F)(F)F)s3)n2)c1 1

Give the reported Growth Rate for this molecule. CC(C)NC(=O)c1ccc(C#Cc2ccncc2)cn1 0

Give the reported Growth Rate for this molecule. CC(=O)c1c(NS(C)(=O)=O)c2cc(-c3ccc(Cl)cc3)c(-c3ccc(Cl)cc3Cl)nc2n(C)c1=O [MRL-CB1-NC] 0

Give the reported Growth Rate for this molecule. COc1ccc(-c2ccc3c(N4CCOCC4)nc(N4C[C@@H](C)O[C@@H](C)C4)nc3n2)cc1CO [Ku-0063794] 0
